System: E. coli K88
Assay: microbe, parasite or virus in culture
Type: cell-based
Details: supernatant treated with trypsin 50 μg/mL, 37 °C, 3 h, pH 6.8; agar diffusion, 37 °C 24 h; dash = no zone
Where a SMILES comes first, the peptide text is derived from it.
OUTCOME_MEASURE: Diameters of the inhibition zones, Trypsin-Treated Group, K88 (mm)

molecule="CSCC[C@H](NC=O)C(=O)N[C@@H](CO)C(=O)N[C@H](C(=O)NCC(=O)N[C@@H](CC(N)=O)C(=O)N[C@@H](C)C(=O)N[C@@H](CC(=O)O)C(=O)NP(=O)(OCCCN)OC[C@H]1O[C@@H](n2cnc3c(N)ncnc32)[C@H](O)[C@@H]1O)[C@@H](C)O (stereo partly shown) [R2S] (HELM PEPTIDE1{[O=C[*:2]].M.S.T.G.N.A.[NCCCOP(=O)(NC(=O)[C@H](CC(=O)O)N[*:1])OC[C@H]1O[C@@H](n2cnc3c(N)ncnc32)[C@H](O)[C@@H]1O]}$$$$V2.0)" units_text=mm observed=9.44

###

Tested on: Yej^+rimL^− strain
Test: organism not typed
Assay type: cell-based
Conditions: supernatant treated with trypsin 50 μg/mL, 37 °C, 3 h, pH 6.8; agar diffusion, 37 °C 24 h; dash = no zone
Where a SMILES comes first, the peptide text is derived from it.
OUTCOME_MEASURE: Diameters of the inhibition zones, Trypsin-Treated Group, Yej^+rimL^−

molecule="CSCC[C@H](NC=O)C(=O)N[C@H](C(=O)N[C@H](C(=O)NCC(=O)N[C@@H](CC(N)=O)C(=O)N[C@@H](C)C(=O)N[C@@H](CC(=O)O)C(=O)NP(=O)(OCCCN)OC[C@H]1O[C@@H](n2cnc3c(N)ncnc32)[C@H](O)[C@@H]1O)[C@@H](C)O)C(C)C (some centres unmarked) [R2V] (HELM PEPTIDE1{[O=C[*:2]].M.V.T.G.N.A.[NCCCOP(=O)(NC(=O)[C@H](CC(=O)O)N[*:1])OC[C@H]1O[C@@H](n2cnc3c(N)ncnc32)[C@H](O)[C@@H]1O]}$$$$V2.0)" observed="14.62 mm"
molecule="CSCC[C@H](NC=O)C(=O)N[C@@H](CC(C)C)C(=O)N[C@H](C(=O)NCC(=O)N[C@@H](CC(N)=O)C(=O)N[C@@H](C)C(=O)N[C@@H](CC(=O)O)C(=O)NP(=O)(OCCCN)OC[C@H]1O[C@@H](n2cnc3c(N)ncnc32)[C@H](O)[C@@H]1O)[C@@H](C)O (some centres unmarked) [R2L] (HELM PEPTIDE1{[O=C[*:2]].M.L.T.G.N.A.[NCCCOP(=O)(NC(=O)[C@H](CC(=O)O)N[*:1])OC[C@H]1O[C@@H](n2cnc3c(N)ncnc32)[C@H](O)[C@@H]1O]}$$$$V2.0)" observed="0 mm"
molecule="O=C(N[C@H](CO)[C@H](O)c1ccc([N+](=O)[O-])cc1)C(Cl)Cl [Chloramphenicol, reference compound]" observed="20.96 mm"
molecule="CC[C@H](C)[C@H](NC(=O)[C@H](CCSC)NC=O)C(=O)N[C@H](C(=O)NCC(=O)N[C@@H](CC(N)=O)C(=O)N[C@@H](C)C(=O)N[C@@H](CC(=O)O)C(=O)NP(=O)(OCCCN)OC[C@H]1O[C@@H](n2cnc3c(N)ncnc32)[C@H](O)[C@@H]1O)[C@@H](C)O (some centres unmarked) [R2I] (HELM PEPTIDE1{[O=C[*:2]].M.I.T.G.N.A.[NCCCOP(=O)(NC(=O)[C@H](CC(=O)O)N[*:1])OC[C@H]1O[C@@H](n2cnc3c(N)ncnc32)[C@H](O)[C@@H]1O]}$$$$V2.0)" observed="15.67 mm"
molecule="CSCC[C@H](NC=O)C(=O)N[C@@H](CCSC)C(=O)N[C@H](C(=O)NCC(=O)N[C@@H](CC(N)=O)C(=O)N[C@@H](C)C(=O)N[C@@H](CC(=O)O)C(=O)NP(=O)(OCCCN)OC[C@H]1O[C@@H](n2cnc3c(N)ncnc32)[C@H](O)[C@@H]1O)[C@@H](C)O (some centres unmarked) [R2M] (HELM PEPTIDE1{[O=C[*:2]].M.M.T.G.N.A.[NCCCOP(=O)(NC(=O)[C@H](CC(=O)O)N[*:1])OC[C@H]1O[C@@H](n2cnc3c(N)ncnc32)[C@H](O)[C@@H]1O]}$$$$V2.0)" observed="14.31 mm"

###

Assay: Remaining amount by RP-HPLC after pepsin treatment
Assay type: in vitro ADME
Details: isolated enzyme pepsin; pepsin treated for 3 h; read-out RP-HPLC; Table S2
Where a SMILES comes first, the peptide text is derived from it.
OUTCOME_MEASURE: remaining at 3 h

compound="CSCC[C@H](NC=O)C(=O)N[C@@H](Cc1ccccc1)C(=O)N[C@H](C(=O)NCC(=O)N[C@@H](CC(N)=O)C(=O)N[C@@H](C)C(=O)N[C@@H](CC(=O)O)C(=O)NP(=O)(OCCCN)OC[C@H]1O[C@@H](n2cnc3c(N)ncnc32)[C@H](O)[C@@H]1O)[C@@H](C)O (stereo partly drawn) [R2F] (HELM PEPTIDE1{[O=C[*:2]].M.F.T.G.N.A.[NCCCOP(=O)(NC(=O)[C@H](CC(=O)O)N[*:1])OC[C@H]1O[C@@H](n2cnc3c(N)ncnc32)[C@H](O)[C@@H]1O]}$$$$V2.0)" observed=82.3%
compound="CSCC[C@H](NC=O)C(=O)NCC(=O)N[C@H](C(=O)NCC(=O)N[C@@H](CC(N)=O)C(=O)N[C@@H](C)C(=O)N[C@@H](CC(=O)O)C(=O)NP(=O)(OCCCN)OC[C@H]1O[C@@H](n2cnc3c(N)ncnc32)[C@H](O)[C@@H]1O)[C@@H](C)O (stereo partly drawn) [R2G] (HELM PEPTIDE1{[O=C[*:2]].M.G.T.G.N.A.[NCCCOP(=O)(NC(=O)[C@H](CC(=O)O)N[*:1])OC[C@H]1O[C@@H](n2cnc3c(N)ncnc32)[C@H](O)[C@@H]1O]}$$$$V2.0)" observed=85.9%
compound="CSCC[C@H](NC=O)C(=O)N[C@@H](Cc1c[nH]cn1)C(=O)N[C@H](C(=O)NCC(=O)N[C@@H](CC(N)=O)C(=O)N[C@@H](C)C(=O)N[C@@H](CC(=O)O)C(=O)NP(=O)(OCCCN)OC[C@H]1O[C@@H](n2cnc3c(N)ncnc32)[C@H](O)[C@@H]1O)[C@@H](C)O (stereo partly drawn) [R2H] (HELM PEPTIDE1{[O=C[*:2]].M.H.T.G.N.A.[NCCCOP(=O)(NC(=O)[C@H](CC(=O)O)N[*:1])OC[C@H]1O[C@@H](n2cnc3c(N)ncnc32)[C@H](O)[C@@H]1O]}$$$$V2.0)" observed=82.3%

###

Experiment: Remaining amount by RP-HPLC after chymotrypsin treatment
Type: in vitro ADME
Conditions: isolated enzyme chymotrypsin; chymotrypsin treated for 3 h; read-out RP-HPLC; Table S2
Where a SMILES comes first, the peptide text is derived from it.
OUTCOME_MEASURE: remaining at 3 h (%)

compound="CSCC[C@H](NC=O)C(=O)N[C@@H](CCC(N)=O)C(=O)N[C@H](C(=O)NCC(=O)N[C@@H](CC(N)=O)C(=O)N[C@@H](C)C(=O)N[C@@H](CC(=O)O)C(=O)NP(=O)(OCCCN)OC[C@H]1O[C@@H](n2cnc3c(N)ncnc32)[C@H](O)[C@@H]1O)[C@@H](C)O (stereo partly drawn) [R2Q] (HELM PEPTIDE1{[O=C[*:2]].M.Q.T.G.N.A.[NCCCOP(=O)(NC(=O)[C@H](CC(=O)O)N[*:1])OC[C@H]1O[C@@H](n2cnc3c(N)ncnc32)[C@H](O)[C@@H]1O]}$$$$V2.0)" observed=49.6
compound="CSCC[C@H](NC=O)C(=O)NCC(=O)N[C@H](C(=O)NCC(=O)N[C@@H](CC(N)=O)C(=O)N[C@@H](C)C(=O)N[C@@H](CC(=O)O)C(=O)NP(=O)(OCCCN)OC[C@H]1O[C@@H](n2cnc3c(N)ncnc32)[C@H](O)[C@@H]1O)[C@@H](C)O (stereo partly drawn) [R2G] (HELM PEPTIDE1{[O=C[*:2]].M.G.T.G.N.A.[NCCCOP(=O)(NC(=O)[C@H](CC(=O)O)N[*:1])OC[C@H]1O[C@@H](n2cnc3c(N)ncnc32)[C@H](O)[C@@H]1O]}$$$$V2.0)" observed=45.6
compound="CSCC[C@H](NC=O)C(=O)N[C@@H](CCCCN)C(=O)N[C@H](C(=O)NCC(=O)N[C@@H](CC(N)=O)C(=O)N[C@@H](C)C(=O)N[C@@H](CC(=O)O)C(=O)NP(=O)(OCCCN)OC[C@H]1O[C@@H](n2cnc3c(N)ncnc32)[C@H](O)[C@@H]1O)[C@@H](C)O (stereo partly drawn) [R2K] (HELM PEPTIDE1{[O=C[*:2]].M.K.T.G.N.A.[NCCCOP(=O)(NC(=O)[C@H](CC(=O)O)N[*:1])OC[C@H]1O[C@@H](n2cnc3c(N)ncnc32)[C@H](O)[C@@H]1O]}$$$$V2.0)" observed=41.4
compound="CSCC[C@H](NC=O)C(=O)N[C@@H](CCCNC(=N)N)C(=O)N[C@H](C(=O)NCC(=O)N[C@@H](CC(N)=O)C(=O)N[C@@H](C)C(=O)N[C@@H](CC(=O)O)C(=O)NP(=O)(OCCCN)OC[C@H]1O[C@@H](n2cnc3c(N)ncnc32)[C@H](O)[C@@H]1O)[C@@H](C)O (stereo partly drawn) [McC, Microcin C7] (HELM PEPTIDE1{[O=C[*:2]].M.R.T.G.N.A.[NCCCOP(=O)(NC(=O)[C@H](CC(=O)O)N[*:1])OC[C@H]1O[C@@H](n2cnc3c(N)ncnc32)[C@H](O)[C@@H]1O]}$$$$V2.0)" observed=41.7
compound="CSCC[C@H](NC=O)C(=O)N[C@@H](CCSC)C(=O)N[C@H](C(=O)NCC(=O)N[C@@H](CC(N)=O)C(=O)N[C@@H](C)C(=O)N[C@@H](CC(=O)O)C(=O)NP(=O)(OCCCN)OC[C@H]1O[C@@H](n2cnc3c(N)ncnc32)[C@H](O)[C@@H]1O)[C@@H](C)O (stereo partly drawn) [R2M] (HELM PEPTIDE1{[O=C[*:2]].M.M.T.G.N.A.[NCCCOP(=O)(NC(=O)[C@H](CC(=O)O)N[*:1])OC[C@H]1O[C@@H](n2cnc3c(N)ncnc32)[C@H](O)[C@@H]1O]}$$$$V2.0)" observed=43.8
compound="CSCC[C@H](NC=O)C(=O)N[C@H](C(=O)N[C@H](C(=O)NCC(=O)N[C@@H](CC(N)=O)C(=O)N[C@@H](C)C(=O)N[C@@H](CC(=O)O)C(=O)NP(=O)(OCCCN)OC[C@H]1O[C@@H](n2cnc3c(N)ncnc32)[C@H](O)[C@@H]1O)[C@@H](C)O)[C@@H](C)O (stereo partly drawn) [R2T] (HELM PEPTIDE1{[O=C[*:2]].M.T.T.G.N.A.[NCCCOP(=O)(NC(=O)[C@H](CC(=O)O)N[*:1])OC[C@H]1O[C@@H](n2cnc3c(N)ncnc32)[C@H](O)[C@@H]1O]}$$$$V2.0)" observed=46.7
compound="CC[C@H](C)[C@H](NC(=O)[C@H](CCSC)NC=O)C(=O)N[C@H](C(=O)NCC(=O)N[C@@H](CC(N)=O)C(=O)N[C@@H](C)C(=O)N[C@@H](CC(=O)O)C(=O)NP(=O)(OCCCN)OC[C@H]1O[C@@H](n2cnc3c(N)ncnc32)[C@H](O)[C@@H]1O)[C@@H](C)O (stereo partly drawn) [R2I] (HELM PEPTIDE1{[O=C[*:2]].M.I.T.G.N.A.[NCCCOP(=O)(NC(=O)[C@H](CC(=O)O)N[*:1])OC[C@H]1O[C@@H](n2cnc3c(N)ncnc32)[C@H](O)[C@@H]1O]}$$$$V2.0)" observed=41.3
compound="CSCC[C@H](NC=O)C(=O)N[C@@H](Cc1ccc(O)cc1)C(=O)N[C@H](C(=O)NCC(=O)N[C@@H](CC(N)=O)C(=O)N[C@@H](C)C(=O)N[C@@H](CC(=O)O)C(=O)NP(=O)(OCCCN)OC[C@H]1O[C@@H](n2cnc3c(N)ncnc32)[C@H](O)[C@@H]1O)[C@@H](C)O (stereo partly drawn) [R2Y] (HELM PEPTIDE1{[O=C[*:2]].M.Y.T.G.N.A.[NCCCOP(=O)(NC(=O)[C@H](CC(=O)O)N[*:1])OC[C@H]1O[C@@H](n2cnc3c(N)ncnc32)[C@H](O)[C@@H]1O]}$$$$V2.0)" observed=45.4
compound="CSCC[C@H](NC=O)C(=O)N[C@@H](C)C(=O)N[C@H](C(=O)NCC(=O)N[C@@H](CC(N)=O)C(=O)N[C@@H](C)C(=O)N[C@@H](CC(=O)O)C(=O)NP(=O)(OCCCN)OC[C@H]1O[C@@H](n2cnc3c(N)ncnc32)[C@H](O)[C@@H]1O)[C@@H](C)O (stereo partly drawn) [R2A] (HELM PEPTIDE1{[O=C[*:2]].M.A.T.G.N.A.[NCCCOP(=O)(NC(=O)[C@H](CC(=O)O)N[*:1])OC[C@H]1O[C@@H](n2cnc3c(N)ncnc32)[C@H](O)[C@@H]1O]}$$$$V2.0)" observed=42.2
